# measurement.target: HLA-A*68:23
# assay.name: IEDB peptide-MHC binding, purified MHC/competitive/fluorescence; filed as Kd, often an IC50 or EC50 that approximates it; bounds were set here for any values at or beyond the usual limits of such assays
# cond: source organism: human gammaherpesvirus 4
observable: Kd (nM)
# output: bare number, implied unit nM

sequence.chain	measurement.target	reported.measurement
YAMAIRQAI	HLA-A*68:23	190

Entry "MMAKSNSPF" has what Kd?
43.1

----------
# measurement.target: HLA-A*01:01
# assay.name: IEDB peptide-MHC binding, purified MHC/competitive/radioactivity; filed as Kd, often an IC50 or EC50 that approximates it; bounds were set here for any values at or beyond the usual limits of such assays
# cond: source organism: Dengue virus 2 Peru/IQT2913/1996
observable: pKd
pKd here: minus log base 10 of the concentration, concentration in moles per litre.

Find pKd (HLA-A*01:01) for the entry "FTMRHKKATY"
5.90

----------
# measurement.target: HLA-B*18:01
# assay.name: IEDB peptide-MHC binding, purified MHC/direct/fluorescence; filed as Kd, often an IC50 or EC50 that approximates it; bounds were set here for any values at or beyond the usual limits of such assays
# cond: source organism: Escherichia coli O157:H7
pKd: −log10 of the molar value.
observable: pKd

Would you kindly share the measured pKd for "RGRGVAIHR" ?
≤ 4.70

----------
# measurement.target: HLA-A*03:01
# assay.name: IEDB peptide-MHC binding, purified MHC/direct/fluorescence; filed as Kd, often an IC50 or EC50 that approximates it; bounds were set here for any values at or beyond the usual limits of such assays
# cond: source organism: Escherichia coli 536
pKd: −log10 of the molar value.
observable: pKd

For the sequence "RYICPVQQI" , what pKd is on record?
≤ 4.70

----------
# measurement.target: HLA-B*35:01
# assay.name: IEDB peptide-MHC binding, purified MHC/competitive/radioactivity; filed as Kd, often an IC50 or EC50 that approximates it; bounds were set here for any values at or beyond the usual limits of such assays
# cond: source organism: Dengue virus 3 Sri Lanka/1266/2000
observable: pKd
Formally, pKd is defined as -log10 of the concentration c, with c in mol/L.

Param item = "LAGPISQHNY" ; retrieve measured pKd.
6.73

----------
# measurement.target: HLA-A*02:01
# assay.name: IEDB peptide-MHC binding, purified MHC/direct/fluorescence; filed as Kd, often an IC50 or EC50 that approximates it; bounds were set here for any values at or beyond the usual limits of such assays
# cond: source organism: Influenza A virus (A/duck/Mongolia/47/2001(H7N1))
observable: Kd

Kd lookup needed for "THFQRKRRV" , thanks.
≥ 20 µM

----------
# measurement.target: HLA-A*02:11
# assay.name: IEDB peptide-MHC binding, purified MHC/direct/fluorescence; filed as Kd, often an IC50 or EC50 that approximates it; bounds were set here for any values at or beyond the usual limits of such assays
# cond: source organism: Orthohantavirus tulaense
observable: Kd

Could you tell me which Kd is on file for "SSLRYGNVL" ?
≥ 20 µM

----------
# measurement.target: HLA-B*15:17
# assay.name: IEDB peptide-MHC binding, purified MHC/direct/fluorescence; filed as Kd, often an IC50 or EC50 that approximates it; bounds were set here for any values at or beyond the usual limits of such assays
# cond: source organism: Mycobacterium tuberculosis
pKd: −log10 of the molar value.
observable: pKd

Look up pKd for this sequence: "AVFPRYHPR"
≤ 4.70

----------
# measurement.target: HLA-A*02:19
# assay.name: IEDB peptide-MHC binding, purified MHC/direct/fluorescence; filed as Kd, often an IC50 or EC50 that approximates it; bounds were set here for any values at or beyond the usual limits of such assays
# cond: source organism: Bacillus cereus H3081.97
observable: Kd

Param item = "YSTVRDLFL" ; retrieve measured Kd.
≥ 20 µM

----------
# measurement.target: HLA-A*26:01
# assay.name: IEDB peptide-MHC binding, purified MHC/competitive/radioactivity; filed as Kd, often an IC50 or EC50 that approximates it; bounds were set here for any values at or beyond the usual limits of such assays
# cond: source organism: Lymphocytic choriomeningitis virus (strain Armstrong)
observable: Kd

sequence.chain	reported.measurement
WCSQTSYQYL	≥ 69.7 µM

Here's the next entry for you.
Give its Kd value. Item: "AFKVPGVKTV"
≥ 69.7 µM

----------
# measurement.target: HLA-A*68:02
# assay.name: IEDB peptide-MHC binding, purified MHC/competitive/radioactivity; filed as Kd, often an IC50 or EC50 that approximates it; bounds were set here for any values at or beyond the usual limits of such assays
# cond: source organism: Dengue virus 1 Brazil/97-11/1997
observable: pKd
Note on pKd: it is the negative log10 of concentration, concentration in mol/L.

Can you look up the measured pKd of "TSLSMTCIAV" for me?
4.87

----------
# measurement.target: HLA-A*23:01
# assay.name: IEDB peptide-MHC binding, purified MHC/competitive/radioactivity; filed as Kd, often an IC50 or EC50 that approximates it; bounds were set here for any values at or beyond the usual limits of such assays
# cond: source organism: Mammarenavirus whitewaterense
pKd: −log10 of the molar value.
observable: pKd

Entry "WDIKDPSLL" : reported pKd = ?
≤ 4.11

----------
# measurement.target: HLA-A*33:01
# assay.name: IEDB peptide-MHC binding, purified MHC/competitive/radioactivity; filed as Kd, often an IC50 or EC50 that approximates it; bounds were set here for any values at or beyond the usual limits of such assays
# cond: source organism: Vaccinia virus WR
observable: Kd

Please review the following examples before continuing.
sequence.chain	Kd
YSFKLILAEY	7.96 µM
AARILSEKR	1.07 µM
YILQLIRHGR	0.256 µM
LIPLSEMVVK	≥ 24.9 µM
DIVNEHDIK	≥ 77.7 µM

For the sequence "NSINNQLMY" , what Kd is on record?
≥ 77.7 µM

// repeat for "VVMHINSPFK" and report
11.6 µM

Cool, now "RIGTAATKRY"
≥ 70 µM

Would you mind doing "NSNIIKNKK" as well?
4.3 µM

Try this sequence too: "LILSNKLLY"
13.2 µM

Now the same for "IFYFISIYSR"
0.0762 µM

"YSKKFQESFY" , same question.
≥ 70 µM

Entry to check: "CFPSTQRDY"
≥ 77.7 µM

# iterate: "TSASEIKDR"
1.34 µM

And the next one, "VLSAATETY" ?
≥ 77.7 µM

Do the same for "ISEKETLNEY" please
≥ 55.6 µM

Can you check "ISSVQLSNNK" next?
3 µM

Request: "DLDKVYEILK"
≥ 24.3 µM

Can you check "SARNKLFKR" next?
0.0696 µM

----------
# measurement.target: HLA-B*27:05
# assay.name: IEDB peptide-MHC binding, purified MHC/direct/fluorescence; filed as Kd, often an IC50 or EC50 that approximates it; bounds were set here for any values at or beyond the usual limits of such assays
# cond: source organism: Rickettsia conorii
observable: Kd

What Kd value was documented for this sequence, "SSSGMDAYY" ?
≥ 20 µM

----------
# measurement.target: HLA-B*40:02
# assay.name: IEDB peptide-MHC binding, purified MHC/competitive/radioactivity; filed as Kd, often an IC50 or EC50 that approximates it; bounds were set here for any values at or beyond the usual limits of such assays
# cond: source organism: Mammarenavirus lassaense
observable: Kd
Kindly report the value followed by its unit.

Kd lookup needed for "IEEIMNIVLI" , thanks.
0.0984 µM

----------
# measurement.target: HLA-B*15:01
# assay.name: IEDB peptide-MHC binding, purified MHC/competitive/fluorescence; filed as Kd, often an IC50 or EC50 that approximates it; bounds were set here for any values at or beyond the usual limits of such assays
# cond: source organism: Yersinia pestis Nepal516
observable: pKd
// scale note: pKd = -log10(conc_M); give the bare number

Entry "MLYPLLWMF" : reported pKd = ?
6.39

----------
# measurement.target: HLA-A*03:01
# assay.name: IEDB peptide-MHC binding, purified MHC/direct/fluorescence; filed as Kd, often an IC50 or EC50 that approximates it; bounds were set here for any values at or beyond the usual limits of such assays
# cond: source organism: Convict Creek 107 virus
observable: Kd

What measured Kd is associated with "WFLYVSQQI" on HLA-A*03:01?
≥ 20 µM

----------
# measurement.target: HLA-A*11:01
# assay.name: IEDB peptide-MHC binding, purified MHC/direct/fluorescence; filed as Kd, often an IC50 or EC50 that approximates it; bounds were set here for any values at or beyond the usual limits of such assays
# cond: source organism: Camelpox virus M-96
pKd: −log10 of the molar value.
observable: pKd

Fill in: pKd of "VMCIQMKYV" is ___
≤ 4.70

----------
# measurement.target: HLA-A*31:01
# assay.name: IEDB peptide-MHC binding, purified MHC/competitive/radioactivity; filed as Kd, often an IC50 or EC50 that approximates it; bounds were set here for any values at or beyond the usual limits of such assays
# cond: source organism: SARS coronavirus Tor2
Define the label as criterion met when Kd is strictly less than 100 nM and as criterion not met in all remaining cases.

API: query returns whether the sequence falls strictly under 100 nM in Kd. Query: "ASLPTTIAK"
criterion not met

Also "IVFVCVEYY" ?
criterion not met

Okay, and "ALAYYNNSK" ?
criterion not met

Attribution: the Immune Epitope Database (IEDB)
